meta.source: patent US9777002B2

Target: hROMK (hKir1.1) (Homo sapiens)
Sequence (P48048 whole entry): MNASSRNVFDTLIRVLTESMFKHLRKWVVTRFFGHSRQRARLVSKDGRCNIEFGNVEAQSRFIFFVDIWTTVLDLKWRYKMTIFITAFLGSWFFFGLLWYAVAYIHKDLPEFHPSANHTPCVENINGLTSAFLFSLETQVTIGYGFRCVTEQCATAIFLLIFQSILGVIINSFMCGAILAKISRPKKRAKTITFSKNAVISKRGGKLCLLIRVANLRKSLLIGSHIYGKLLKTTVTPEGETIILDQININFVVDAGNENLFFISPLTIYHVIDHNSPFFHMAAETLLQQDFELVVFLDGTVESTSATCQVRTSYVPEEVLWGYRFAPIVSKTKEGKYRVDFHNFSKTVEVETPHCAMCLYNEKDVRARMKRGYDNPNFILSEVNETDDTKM
Test: Thallium Flux Assay
Details: HEK293 cells stably expressing hROMK (hKir1.1)
pIC50: −log10 of the molar value.
Quick reference: pIC50 of the listed items.
RESULT_TYPE: pIC50

1. Cc1c(C(O)CN2CCC(NC(=O)c3ccc(C#N)c(F)c3)CC2)ccc2c1COC2=O (stereo not shown) : 7.30
2. Cc1c([C@@H](O)CN2CCC(C)(NC(=O)c3ccc(-n4cnnn4)nc3)CC2)ccc2c1COC2=O : 6.41
3. COc1cc(F)c(C#N)cc1C(=O)NC1CCN(C[C@@H](O)c2ccc3c(c2C)COC3=O)CC1 : 6.82
4. Cc1c([C@@H](O)CN2CCC(C)(NC(=O)c3ccc4nonc4c3)CC2)ccc2c1COC2=O : 6.28
5. Cc1c([C@@H](O)CN2CC3C(C2)C3NC(=O)c2ccc(-n3cnnn3)cn2)ccc2c1COC2=O (stereo partly shown) : 6.15
6. Cc1nc(C(=O)N[C@H]2CCN(C[C@H](O)c3ccc4c(c3C)COC4=O)C[C@H]2F)ccc1C#N (single isomer, unassigned) [44 A] : 6.24
7. Cc1c([C@@H](O)CN2CCC(NC(=O)c3ccc(-c4ccon4)cc3)CC2)ccc2c1COC2=O : 7.22
